# methodNotes: BA test (oral absorption)
# Type: in vivo
# appliedConditions: rat, plasma; rats; calculated from AUCs of oral and intravenous administration groups

compound	bioavailability
COCCOc1ccc(-c2ccc(-c3nc4cc(O[C@@H]5CO[C@H]6[C@@H]5OC[C@H]6O)[nH]c4cc3F)cc2)cc1	38.8%
O=C1NCCC1Oc1ccc(-c2ccc(-c3nc4cc(O[C@@H]5CO[C@H]6[C@@H]5OC[C@H]6O)[nH]c4cc3F)cc2)cc1 (stereo partly drawn)	25.5%
O[C@@H]1CO[C@H]2[C@@H]1OC[C@H]2Oc1cc2nc(-c3ccc([C@@H]4CCCC[C@@H]4O)cc3)c(F)cc2[nH]1	18.6%
CN1CCC(Oc2ccc(-c3ccc(-c4nc5cc(O[C@@H]6CO[C@H]7[C@@H]6OC[C@H]7O)[nH]c5cc4F)cc3)cc2)C1=O (stereo partly drawn)	28.6%
CC(C)(O)COc1ccc(-c2ccc(-c3nc4cc(O[C@@H]5CO[C@H]6[C@@H]5OC[C@H]6O)[nH]c4cc3F)cc2)cc1	59%
CC(=O)N1CCC(Oc2ccc(-c3ccc(-c4nc5cc(O[C@@H]6CO[C@H]7[C@@H]6OC[C@H]7O)[nH]c5cc4F)cc3)cc2)C1 (stereo partly drawn)	19.6%

###

# targetOrTestSystem: Human AMPK α2β2γ1 (Homo sapiens, UniProt O43741+P54646)
# Construct: The full length cDNAs of human AMPK β2 (NM_005399.3) and human AMPK α2 (NM_006252.3); The full length cDNAs of human AMPK β2 (NM_005399.3); the full length cDNA of human AMPK γ1 (NM_002733.3) had been inserted into pET28b(+); 6×His (N); made in house; host or cells: Escherichia coli BL21 CodonPlus (DE3)-RIL
# Sequence (P54646 whole entry): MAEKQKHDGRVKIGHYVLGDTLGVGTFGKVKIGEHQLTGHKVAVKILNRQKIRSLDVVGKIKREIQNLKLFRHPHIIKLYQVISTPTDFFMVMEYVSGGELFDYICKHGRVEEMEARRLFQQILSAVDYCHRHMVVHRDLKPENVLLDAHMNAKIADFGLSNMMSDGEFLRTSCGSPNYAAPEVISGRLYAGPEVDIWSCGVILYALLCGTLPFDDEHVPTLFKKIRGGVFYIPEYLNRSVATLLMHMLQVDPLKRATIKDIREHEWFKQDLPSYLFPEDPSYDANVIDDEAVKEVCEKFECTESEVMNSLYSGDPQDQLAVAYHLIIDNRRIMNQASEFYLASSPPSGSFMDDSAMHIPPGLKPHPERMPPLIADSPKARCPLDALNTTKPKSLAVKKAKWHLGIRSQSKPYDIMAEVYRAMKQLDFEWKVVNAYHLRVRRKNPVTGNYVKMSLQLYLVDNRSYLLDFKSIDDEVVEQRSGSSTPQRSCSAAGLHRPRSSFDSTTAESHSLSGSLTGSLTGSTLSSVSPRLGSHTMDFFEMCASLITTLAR
# Sequence (O43741 whole entry): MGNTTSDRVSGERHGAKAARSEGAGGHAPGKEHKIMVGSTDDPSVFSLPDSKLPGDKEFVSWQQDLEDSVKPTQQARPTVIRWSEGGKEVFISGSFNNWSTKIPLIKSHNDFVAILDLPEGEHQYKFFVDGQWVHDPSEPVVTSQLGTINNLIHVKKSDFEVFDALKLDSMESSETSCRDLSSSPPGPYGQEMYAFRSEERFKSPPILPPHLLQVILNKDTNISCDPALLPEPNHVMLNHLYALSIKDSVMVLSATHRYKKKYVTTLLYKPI
# Sequence (P54619 whole entry partner): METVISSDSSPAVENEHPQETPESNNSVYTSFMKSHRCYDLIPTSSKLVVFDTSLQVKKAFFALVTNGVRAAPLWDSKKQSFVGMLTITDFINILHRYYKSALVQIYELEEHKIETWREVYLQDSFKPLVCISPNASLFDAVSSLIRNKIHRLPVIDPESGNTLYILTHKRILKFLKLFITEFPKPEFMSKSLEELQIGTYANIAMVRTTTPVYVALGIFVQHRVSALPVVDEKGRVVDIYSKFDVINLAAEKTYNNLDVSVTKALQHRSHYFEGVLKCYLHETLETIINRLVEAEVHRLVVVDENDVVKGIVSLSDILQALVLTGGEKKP
# methodNotes: Test Example 2: activation of phosphorylated human AMPK α2β2γ1 (mobility-shift kinase assay, FL-Peptide 7)
# Assay type: biochemical
# appliedConditions: compound concentration showing 150% relative to the control (100%); human AMPK α2β2γ1 phosphorylated with CaMKK2
molecules and their reported EC150

molecule	EC150 (nM)
CN(C)C(=O)OC1CCN(c2ccc(-c3nc4cc(O[C@@H]5CO[C@H]6[C@@H]5OC[C@H]6O)[nH]c4cc3F)cc2)CC1 [Compound I-1-50]	23
CNS(C)(=O)=Nc1ccc(-c2ccc(-c3nc4cc(O[C@@H]5CO[C@H]6[C@@H]5OC[C@H]6O)[nH]c4cc3F)cc2)cc1 (stereo partly drawn) [Compound I-2-04]	0.67
COCCOc1cc(F)c(-c2ccc(-c3nc4cc(O[C@@H]5CO[C@H]6[C@@H]5OC[C@H]6O)[nH]c4cc3F)cc2)c(F)c1 [Compound I-2-76]	20
O[C@@H]1CO[C@H]2[C@@H]1OC[C@H]2Oc1cc2nc(-c3ccc(-c4ccc(OC5CCNCC5)cc4)cc3)c(F)cc2[nH]1 [Compound I-2-60]	2
COCCS(=N)(=O)c1ccc(-c2ccc(-c3nc4cc(O[C@@H]5CO[C@H]6[C@@H]5OC[C@H]6O)[nH]c4cc3F)cc2)cc1 (stereo partly drawn) [Compound I-2-96]	2.9
NC(=O)c1ccc(-c2ccc(-c3nc4cc(O[C@@H]5CO[C@H]6[C@@H]5OC[C@H]6O)[nH]c4cc3F)cc2)cc1F [Compound I-1-52]	2.2
COCCN(C)c1ccc(-c2ccc(-c3nc4cc(O[C@@H]5CO[C@H]6[C@@H]5OC[C@H]6O)[nH]c4cc3F)cc2)cc1 [Compound I-2-12]	6.9
O[C@@H]1CO[C@H]2[C@@H]1OC[C@H]2Oc1cc2nc(-c3ccc([C@@H]4CCCC[C@H]4O)cc3)c(F)cc2[nH]1 [Compound I-2-17]	15
CNC(=O)Nc1ccc(-c2ccc(-c3nc4cc(O[C@@H]5CO[C@H]6[C@@H]5OC[C@H]6O)[nH]c4cc3F)cc2)cc1 [Compound I-1-08]	4.7
COC(=O)N1CC=C(c2ccc(-c3nc4cc(O[C@@H]5CO[C@H]6[C@@H]5OC[C@H]6O)[nH]c4cc3F)cc2)CC1 [Compound I-1-43]	7
CC(=O)N1CCC(Oc2ccc(-c3ccc(-c4nc5cc(O[C@@H]6CO[C@H]7[C@@H]6OC[C@H]7O)[nH]c5cc4F)cc3)cc2)C1 (stereo partly drawn) [Compound I-1-27]	5.8
CNC(=O)c1ccc(-c2ccc(-c3nc4cc(O[C@@H]5CO[C@H]6[C@@H]5OC[C@H]6O)[nH]c4cc3F)cc2)cc1F [Compound I-1-54]	3.3
